For each of the molecules below, state its z-score.
PROTOCOL_DESCRIPTION: Pseudomonas biofilm growth suppression – PAO1 strain, BacTiter-Glo luminescence, LB-PBS, primary screen (AID 1144)
DETAILS: P. aeruginosa PAO1 biofilm, 12 h, higher = more signal
Calls of active or inactive are those of the source. The rule behind the calls is not given here.

Lab note: measured z-score of COC(=O)[C@@]1(Cc2ccccc2)[C@H]2c3cc(C(=O)N4CCCC4)n(Cc4ccc(O)c(OC)c4)c3C[C@H]2CN1C(=O)c1ccccc1 was 0.633 (inactive)

Lab note: measured z-score of C#CCNCc1ccccc1 was 1.16 (inactive)

Lab note: measured z-score of O=C1O[C@@H](c2ccccc2)[C@@H](c2ccccc2)N2[C@@H](c3ccccc3OCCO)[C@]3(C(=O)Nc4ccccc43)[C@@H](C(=O)O)[C@H]12 was -0.0695 (inactive)

Lab note: measured z-score of C[N+](C)(C)CCCC[C@@H]1NC(=O)[C@H]2C[C@@H](C(=O)NCCCCCCNC(=O)CS)[C@@H](c3ccc(O)cc3)N2C1=O was -0.15 (inactive)

====

For each of the compounds below, state its composite z-score.
EXPERIMENTAL_SYSTEM: Alpha-bungarotoxin (Bungarus multicinctus) (UniProt P60615)
Sequence (P60615 whole entry, looked up): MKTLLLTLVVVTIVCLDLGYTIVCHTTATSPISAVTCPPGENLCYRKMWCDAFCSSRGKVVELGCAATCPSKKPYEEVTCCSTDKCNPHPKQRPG
PROTOCOL_DESCRIPTION: compounds binding labelled alpha-BTX control protein – biochemical, small-molecule microarray, Alexa647 label, 635/667 nm fluorescence, artefact control for SMM control protein annotation, profiling panel (AID 1117)
DETAILS: alpha-BTX-A647 binding fluorescence, higher = more signal
// no unit, no text: just the number

Lab note: measured composite z-score of CCN(CC)c1ccc(N2CC=CC34O[C@@H]5C=CCOC(=O)[C@@H]5[C@H]3C(=O)N(CCCCCCO)[C@@H]4C2=O)cc1 (stereo partly drawn) was -0.226

Lab note: measured composite z-score of C=CCN1C(=O)[C@]2(Cc3ccccc3)N=C(c3ccc(OCCCO)cc3)O[C@@H]2c2ccccc21 was 1.04

Lab note: measured composite z-score of CC(C)(C)OC(=O)CC[C@]1(C(N)=O)N=C(c2ccc(OCCCO)cc2)O[C@H]1c1ccccc1 was 2.12

Lab note: measured composite z-score of O=C(O)[C@@]1(CCS(=O)(=O)c2ccccc2)N=C(c2ccc(OCCCO)cc2)O[C@H]1c1ccccc1 was 0.524

Lab note: measured composite z-score of [N-]=[N+]=Nc1ccccc1C[C@]1(C(=O)N2CCCCC2)COC(c2ccc(OCCCO)cc2)=N1 was 0.465

Lab note: measured composite z-score of COc1cc(CO)cc(I)c1O[C@H]1C=C(C(=O)NCCO)C[C@@H](NC[C@@H]2CCCO2)[C@@H]1O was 0.693

Lab note: measured composite z-score of COCCCNC(=O)[C@@]1(Cc2ccccc2)N=C(c2ccc(OCCCO)cc2)O[C@H]1c1ccccc1CN=[N+]=[N-] was 2.23

Lab note: measured composite z-score of CC(c1ccccc1)C(O)C1C=CC2C(=O)N(c3ccccc3)C(=O)C2N1Nc1ccccc1 (stereo not drawn) was 1.98

====

PROTOCOL_DESCRIPTION: probe aDKK1 binding to arrayed compounds – biochemical, biotinylated probe, 635/667 nm fluorescence, primary screen (AID 1099);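 note: score merges 667nm spot fluorescence with signal to noise across triplicate slides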
DETAILS: small-molecule microarray, higher = more signal
RECORDED_METRIC: composite z-score
// no unit, no text: just the number

Lab note: measured composite z-score of CCCC[C@H]1C[C@@H]1[C@@H]1N(P(=O)(c2ccccc2)c2ccccc2)C[C@@](O)(c2ccccc2)CC12CC2 was 1.12

Lab note: measured composite z-score of COC(=O)[C@@]1(Cc2ccc(OC)cc2)[C@H]2c3cc(C(=O)N4CCCC4)n(CCCNc4ncc(C(F)(F)F)cc4Cl)c3C[C@H]2CN1C(=O)c1ccccc1 was 1.63

Lab note: measured composite z-score of O=C1NC(=O)C2C1C=CC(C(O)c1ccc(I)cc1)N2Nc1ccccn1 (centres undefined) was 0.0824

Lab note: measured composite z-score of COc1ccccc1CN1C(=O)c2ccccc2[C@@H](C(=O)NCc2ccccc2)[C@@H]1c1ccc(CO)cc1 was -0.262

====

PROTOCOL_DESCRIPTION: compound effects on differentiated 3T3-L1 adipocyte viability – cell-based, 3T3-L1 adipocytes, calcein-AM fluorescence, 48 h, basal, profiling panel (AID 1163); note: test concentration not given here
DETAILS: 3T3-L1 adipocytes viability, higher = more signal
Lab note: anything with z-score below -0.3 is marked Satisfied; values at -0.3 or higher are marked Not satisfied.

Lookup: Check if z-score falls below -0.3 for N#Cc1ccc(C(O)C2C=CC3C(=O)N(c4ccccc4)C(=O)C3N2Nc2ccccc2F)cc1 (stereo not given) .
Found: Satisfied

Lookup: Check if z-score falls below -0.3 for C=CC[C@]1(C(=O)N2CCOCC2)N=C(c2ccc(OCCCO)cc2)O[C@H]1c1ccccc1N=[N+]=[N-] .
Found: Not satisfied

Lookup: Check if z-score falls below -0.3 for O=C1C2C=CC(C(O)c3ccc(F)cc3)N(Nc3ccc([N+](=O)[O-])cc3)C2C(=O)N1c1ccccc1 (stereo not given) .
Found: Satisfied

Lookup: Check if z-score falls below -0.3 for C=CCNC(=O)[C@H]1[C@@H]2C(=O)O[C@@H](c3ccccc3)[C@@H](c3ccccc3)N2[C@@H](c2ccc(OCCO)cc2)[C@]12C(=O)Nc1ccc(C#CCC(C(=O)OC)C(=O)OC)cc12 .
Found: Not satisfied

Lookup: Check if z-score falls below -0.3 for O=C1O[C@H](c2ccccc2)[C@H](c2ccccc2)N2[C@H]1[C@@H](C(=O)NC[C@H](O)c1ccccc1)[C@]1(C(=O)Nc3ccccc31)[C@H]2c1ccc(O)cc1 .
Found: Not satisfied

Lookup: Check if z-score falls below -0.3 for C=CC[C@]12N=C(c3ccc(OCCCO)cc3)O[C@H]1c1ccccc1N(CCS(=O)(=O)c1ccccc1)C2=O .
Found: Not satisfied

Lookup: Check if z-score falls below -0.3 for CS(=O)(=O)CCOC(=O)C1=CC(CCCO)=CC(c2ccc(CN3CCCC3)cc2)N(Cc2cccc(OC(F)(F)F)c2)C=C1C(=O)OCCS(C)(=O)=O (stereo not given) .
Found: Not satisfied

Lookup: Check if z-score falls below -0.3 for CCOc1ccc(N2C(=O)CSC2c2cccc([N+](=O)[O-])c2)cc1 (stereo not given) .
Found: Satisfied

Lookup: Check if z-score falls below -0.3 for O=C1C2C=CC(C(O)C=Cc3ccc([N+](=O)[O-])cc3)N(n3cnnc3)C2C(=O)N1Cc1ccccc1 (stereo not given) .
Found: Not satisfied

Lookup: Check if z-score falls below -0.3 for O=C1C2C=CC(C(O)C=Cc3ccc([N+](=O)[O-])cc3)N(Nc3ccccc3F)C2C(=O)N1c1ccccc1 (stereo not given) .
Found: Satisfied

Lookup: Check if z-score falls below -0.3 for CC=CC(O)C1C=CC2C(=O)N(C)C(=O)C2N1N(c1ccccc1)c1ccccc1 (stereo not given) .
Found: Satisfied

Lookup: Check if z-score falls below -0.3 for COCCCNC(=O)[C@@]1(CCS(=O)(=O)c2ccccc2)N=C(c2ccc(OCCCO)cc2)O[C@H]1c1ccccc1N=[N+]=[N-] .
Found: Not satisfied

Lookup: Check if z-score falls below -0.3 for C=CCN(Cc1ccccc1)C(=O)C(c1cccs1)N(C(=O)/C=C\C(=O)O)c1ccc(CCOCCO)cc1 (stereo not given) .
Found: Not satisfied

Lookup: Check if z-score falls below -0.3 for COC(=O)[C@@]1(Cc2ccc(F)cc2)[C@H]2c3cc(C(=O)N(C)C)n(Cc4cc(C)n(C)n4)c3C[C@H]2CN1C(=O)c1ccccc1 .
Found: Not satisfied

====

For each of the molecules below, state its composite z-score.
Tested on: glycogen synthase kinase-3 (GSK3A per assay name; protocol says GSK3B)
PROTOCOL_DESCRIPTION: compounds binding glycogen synthase kinase-3 – biochemical, small-molecule microarray, 635 nm fluorescence, GSK3A, primary screen (AID 1103); note: the record names both GSK3A and GSK3B
DETAILS: fluorescence 635 nm, higher = more signal
// no unit, no text: just the number

Lab note: measured composite z-score of OB1C=CCC(CCc2ccccc2)O1 (stereo not given) was -0.428

Lab note: measured composite z-score of C#CCN1[C@@H](Cc2ccc(O)cc2)C(=O)O[C@H](Cc2ccccc2)[C@@H]1/C=C/C1CC1 was -0.102

Lab note: measured composite z-score of CCCCCN1CC=CC23O[C@@H]4C=CCOC(=O)[C@@H]4[C@H]2C(=O)N(C(C)CO)[C@@H]3C1=O (stereo not given in full) was -0.831

Lab note: measured composite z-score of CN(C)C(=O)[C@]1(Cc2ccccc2)N=C(c2ccc(OCCCO)cc2)O[C@@H]1c1ccccc1N=[N+]=[N-] was 1.3

Lab note: measured composite z-score of COc1ccc([Si](C)(C)[C@H]2[C@H](CCn3cc([C@H](O)c4ccccc4)nn3)O[C@@]3(C(=O)N(C)c4ccccc43)[C@@H]2C)cc1 was -0.621

Lab note: measured composite z-score of COC(=O)[C@@]1(Cc2ccc(OC)cc2)[C@H]2c3cc(C(=O)N4CCCC4)n(Cc4nc5ccccc5[nH]4)c3C[C@H]2CN1C(=O)c1ccccc1 was 0.54

Lab note: measured composite z-score of CCC(CC)C(O)C1C=CC2C(=O)N(c3ccccc3)C(=O)C2N1Nc1ccccc1 (stereo not given) was 1.21

Lab note: measured composite z-score of COCCOC(=O)N1C(=O)[C@@]2(c3ccccc31)[C@H](c1ccc(OCCO)cc1)N1[C@H](c3ccccc3)[C@H](c3ccccc3)OC(=O)[C@H]1[C@@H]2C(=O)N1CCc2cc(OC)c(OC)cc2C1 was 1.3

Lab note: measured composite z-score of CC(C)OC(=O)C=C1C[C@@H](c2cccc(Cl)c2)O[C@@H](c2cccc(Cl)c2)O1 was 0.651

Lab note: measured composite z-score of Cc1ccc(S(=O)(=O)N2C[C@@H](C(=O)O)[C@H](Sc3ccccc3)C[C@H]2c2ccccc2)cc1 was 0.586

Lab note: measured composite z-score of O=C1O[C@H](c2ccccc2)[C@H](c2ccccc2)N2[C@H]1[C@@H](C(=O)NC[C@H](O)c1ccccc1)[C@]1(C(=O)Nc3ccc(C#CC4=CCCCC4)cc31)[C@H]2c1ccccc1OCCO was 1.13

Lab note: measured composite z-score of CC(C)[Si](C#CCCCC#N)(Oc1ccccc1Br)C(C)C was 0.693

Lab note: measured composite z-score of COc1cc(CO)cc(I)c1O[C@H]1C=C(C(=O)NCCO)C[C@@H](N(C(=O)c2cc3ccccc3oc2=O)C2CCCCCC2)[C@@H]1O was -0.314

Lab note: measured composite z-score of CCCC=C(CCC)[C@@H](NC(=O)OCC(C)C)c1ccccc1 was 0.659

Lab note: measured composite z-score of CO[C@H]1O[C@H](CO)[C@@H](OC(=O)Nc2ccccc2-c2ccccc2)[C@H](OC(=O)Nc2ccccc2-c2ccccc2)[C@@H]1OC(=O)Nc1ccccc1-c1ccccc1 was 1.12
